List of Papp B→A values.
# Assay Procedure: Caco-2 permeability
# Format: in vitro ADME
# Assay Context: human, BtoA
Response body: numeric value in ×10⁻⁶ cm/s, unit text excluded.

CCCc1nc(C)c2c(=O)[nH]c(-c3cc(S(=O)(=O)NCCCN4CCCC4=O)ccc3OCC)nn12 36.7
CCCc1nc(C)c2c(=O)[nH]c(-c3cc(S(=O)(=O)N4CCN(CCN5CCOCC5)CC4)ccc3OCC)nn12 40.6
CCCc1nc(C)c2c(=O)[nH]c(-c3cc(S(=O)(=O)N(C)CC(=O)N(C)OC)ccc3OCC)nn12 48.8

# Papp B→A lookup, item "CCCc1nc(C)c2c(=O)[nH]c(-c3cc(S(=O)(=O)N(C)C(C)(C)C)ccc3OCC)nn12"
50.4

---

# Tested On: PDE-6 bovine (Bos taurus, UniProt P11541+P23439)
# Sequence (P11541 2-856 limits assumed): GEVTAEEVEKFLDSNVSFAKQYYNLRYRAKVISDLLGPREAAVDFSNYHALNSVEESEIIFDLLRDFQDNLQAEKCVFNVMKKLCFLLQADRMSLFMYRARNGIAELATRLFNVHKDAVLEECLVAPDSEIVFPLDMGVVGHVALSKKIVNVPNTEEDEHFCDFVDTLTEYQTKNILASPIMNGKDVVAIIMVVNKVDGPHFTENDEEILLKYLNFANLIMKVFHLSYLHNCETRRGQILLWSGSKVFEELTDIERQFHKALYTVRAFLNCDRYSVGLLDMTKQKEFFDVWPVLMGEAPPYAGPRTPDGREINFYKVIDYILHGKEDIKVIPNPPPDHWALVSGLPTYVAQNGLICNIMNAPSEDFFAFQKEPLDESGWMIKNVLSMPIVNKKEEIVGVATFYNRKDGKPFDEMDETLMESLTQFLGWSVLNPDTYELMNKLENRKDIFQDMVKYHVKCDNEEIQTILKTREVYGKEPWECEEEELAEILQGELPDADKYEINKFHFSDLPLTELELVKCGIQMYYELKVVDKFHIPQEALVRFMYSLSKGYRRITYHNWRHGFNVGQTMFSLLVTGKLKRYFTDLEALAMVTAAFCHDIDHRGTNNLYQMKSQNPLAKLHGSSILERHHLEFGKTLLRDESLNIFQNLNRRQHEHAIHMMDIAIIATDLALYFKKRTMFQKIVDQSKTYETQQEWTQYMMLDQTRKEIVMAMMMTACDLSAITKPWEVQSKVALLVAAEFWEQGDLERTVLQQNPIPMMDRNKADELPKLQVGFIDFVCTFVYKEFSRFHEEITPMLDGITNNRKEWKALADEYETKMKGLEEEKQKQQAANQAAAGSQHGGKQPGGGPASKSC
# Sequence (P23439 2-850 limits assumed): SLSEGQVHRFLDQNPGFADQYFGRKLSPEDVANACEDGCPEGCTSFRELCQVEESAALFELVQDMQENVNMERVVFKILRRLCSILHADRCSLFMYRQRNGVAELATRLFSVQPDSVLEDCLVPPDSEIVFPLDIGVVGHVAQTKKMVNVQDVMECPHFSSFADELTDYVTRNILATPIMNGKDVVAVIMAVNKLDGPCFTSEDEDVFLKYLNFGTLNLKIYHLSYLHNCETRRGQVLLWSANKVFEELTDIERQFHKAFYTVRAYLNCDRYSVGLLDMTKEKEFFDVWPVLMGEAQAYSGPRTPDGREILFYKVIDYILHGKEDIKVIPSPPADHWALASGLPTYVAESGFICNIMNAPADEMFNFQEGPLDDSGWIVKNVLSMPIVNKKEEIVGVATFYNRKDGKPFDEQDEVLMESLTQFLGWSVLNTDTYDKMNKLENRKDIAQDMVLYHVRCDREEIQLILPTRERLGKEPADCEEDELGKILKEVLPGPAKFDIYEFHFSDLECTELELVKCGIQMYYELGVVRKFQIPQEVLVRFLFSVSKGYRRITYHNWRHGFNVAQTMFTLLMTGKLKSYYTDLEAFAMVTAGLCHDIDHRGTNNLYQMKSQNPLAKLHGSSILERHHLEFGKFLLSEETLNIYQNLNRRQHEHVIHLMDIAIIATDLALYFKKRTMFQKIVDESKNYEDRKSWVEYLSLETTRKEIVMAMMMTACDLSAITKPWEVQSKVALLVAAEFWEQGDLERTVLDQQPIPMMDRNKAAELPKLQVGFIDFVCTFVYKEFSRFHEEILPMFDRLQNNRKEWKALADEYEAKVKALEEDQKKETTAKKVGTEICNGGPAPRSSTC
# Assay Procedure: PDE-6 bovine inhibition
Result Type: IC50
Give your result as the value with the unit written after it.

CCCc1nc(C)c2c(=O)[nH]c(-c3cc(S(=O)(=O)N(C)CC(=O)N(C)OC)ccc3OCC)nn12 2.9 nM
CCCc1nc(C)c2c(=O)[nH]c(-c3cc(S(=O)(=O)N(CCOCC)CCOCC)ccc3OCC)nn12 2.6 nM
CCCc1nc(C)c2c(=O)[nH]c(-c3cc(S(=O)(=O)N4CCN(C(=O)CN(C)C)CC4)ccc3OCC)nn12 4.4 nM

# IC50 lookup, item "CCCc1nc(C)c2c(=O)[nH]c(-c3cc(S(=O)(=O)N4CCC[C@H]4CN4CCCC4)ccc3OCC)nn12.Cl"
23 nM

---

# Assay Procedure: Chronic Cytoxicity (mouse 3T3)
# Assay type: cell-based
# Assay Context: 3T3 cells
Result Type: GI50 (µM)
Response body: numeric value in µM, unit text excluded.

CCCc1nc(C)c2c(=O)[nH]c(-c3cc(S(=O)(=O)N4CCC[C@H]4CN4CCCC4)ccc3OCC)nn12.Cl 25

In the following, a different compound is considered.
# GI50 lookup, item "CCCc1nc(C)c2c(=O)[nH]c(-c3cc(S(=O)(=O)N(CC)CCOC)ccc3OCC)nn12"
87.3

---

# Assay Procedure: Caco-2 permeability
# Format: in vitro ADME
# Assay Context: human, AtoB
Label t when Papp A→B is strictly below 8 ×10⁻⁶ cm/s; at or above that, label f.

Mol	Assigned Label
CCCc1nc(C)c2c(=O)[nH]c(-c3cc(S(=O)(=O)N(C)CC(OC)OC)ccc3OCC)nn12	f
CCCc1nc(C)c2c(=O)[nH]c(-c3cc(S(=O)(=O)N(C)CCNC)ccc3OCC)nn12	t
CCCc1nc(C)c2c(=O)[nH]c(-c3cc(S(=O)(=O)N4CCN(CCN5CCOCC5)CC4)ccc3OCC)nn12	f
CCCc1nc(C)c2c(=O)[nH]c(-c3cc(S(=O)(=O)N(CC)CCOC)ccc3OCC)nn12	f
CCCc1nc(C)c2c(=O)[nH]c(-c3cc(S(=O)(=O)N(C)CC(=O)N(C)OC)ccc3OCC)nn12	f

Decide: Papp A→B of "CCCc1nc(C)c2c(=O)[nH]c(-c3cc(S(=O)(=O)N4CCC[C@H]4CN4CCCC4)ccc3OCC)nn12.Cl" strictly below 8 ×10⁻⁶ cm/s?
t

---

List of pIC50 values.
# Tested On: PDE-6 bovine (Bos taurus, UniProt P11541+P23439)
# Assay Procedure: PDE-6 bovine inhibition
Remember the convention: pIC50 equals -log10 of concentration in molar.

Some solved cases for reference:
Molecule	Reported
CCCc1nc(C)c2c(=O)[nH]c(-c3cc(S(=O)(=O)N4CCN(C(=O)C5CCCO5)CC4)ccc3OCC)nn12 (stereo not shown) [Compound 19]	9.16
CCCc1nc(C)c2c(=O)[nH]c(-c3cc(S(=O)(=O)N(C)C(C)(C)C)ccc3OCC)nn12 [Compound 3]	8.43
CCCc1nc(C)c2c(=O)[nH]c(-c3cc(S(=O)(=O)N4CCN(CC(=O)N(C)C)CC4)ccc3OCC)nn12 [Compound 16]	9.44
CCCc1nc(C)c2c(=O)[nH]c(-c3cc(S(=O)(=O)N4CCN(CC(=O)NC(C)C)CC4)ccc3OCC)nn12 [Compound 18]	9.19
CCCc1nn(C)c2c(=O)[nH]c(-c3cc(S(=O)(=O)N4CCN(CCN5CCOCC5)CC4)ccc3OCC)nc12 [Compound 21]	7.92

# pIC50 lookup, item CCCNS(=O)(=O)c1ccc(OCC)c(-c2nn3c(CCC)nc(C)c3c(=O)[nH]2)c1 [Compound 23]
9.21

Now the same for CCCc1nc(C)c2c(=O)[nH]c(-c3cc(S(=O)(=O)N(C)CCN4CCCC4=O)ccc3OCC)nn12 [Compound 20]
9.20

---

# System: PDE-1
# Assay Procedure: PDE-1 inhibition
# Type: biochemical
List of pIC50 values.
Remember the convention: pIC50 equals -log10 of concentration in molar.

Some solved cases for reference:
Molecule	Tested On	pIC50
CCCc1nc(C)c2c(=O)[nH]c(-c3cc(S(=O)(=O)N4CCN(CC(=O)N(C)C)CC4)ccc3OCC)nn12 [Compound 16]	PDE-1	7.77
CCCc1nc(C)c2c(=O)[nH]c(-c3cc(S(=O)(=O)N(C)CC(=O)N(C)OC)ccc3OCC)nn12 [Compound 14]	PDE-1	7.92
CCCc1nc(C)c2c(=O)[nH]c(-c3cc(S(=O)(=O)N(C)C(C)(C)C)ccc3OCC)nn12 [Compound 3]	PDE-1	7.92
CCCc1nc(C)c2c(=O)[nH]c(-c3cc(S(=O)(=O)N(C)C)ccc3OCC)nn12 [Compound 8]	PDE-1	7.51
CCCc1nc(C)c2c(=O)[nH]c(-c3cc(S(=O)(=O)N(C)CCNC)ccc3OCC)nn12 [Compound 2]	PDE-1	7.09
CCCc1nn(C)c2c(=O)[nH]c(-c3cc(S(=O)(=O)N4CCN(CCN5CCOCC5)CC4)ccc3OCC)nc12 [Compound 21]	PDE-1	7.12
CCCc1nc(C)c2c(=O)[nH]c(-c3cc(S(=O)(=O)N(C)C[C@H](COC)OC)ccc3OCC)nn12 [Compound 7]	PDE-1	7.83
CCCc1nc(C)c2c(=O)[nH]c(-c3cc(S(=O)(=O)N(C)CC(=O)O)ccc3OCC)nn12 [Compound 12]	PDE-1	7.62
CCCc1nc(C)c2c(=O)[nH]c(-c3cc(S(=O)(=O)N(CCOCC)CCOCC)ccc3OCC)nn12 [Compound 10]	PDE-1	7.92
CCCc1nc(C)c2c(=O)[nH]c(-c3cc(S(=O)(=O)N(C)CC(OC)OC)ccc3OCC)nn12 [Compound 17]	PDE-1	8.59

# pIC50 lookup, item CCCc1nc(C)c2c(=O)[nH]c(-c3cc(S(=O)(=O)N4CCN(CCN5CCOCC5)CC4)ccc3OCC)nn12 [Compound 15]
7.33

Now the same for CCCc1nc(C)c2c(=O)[nH]c(-c3cc(S(=O)(=O)NCCCN4CCCC4=O)ccc3OCC)nn12 [Compound 13]
8.46

Now the same for CCCc1nc(C)c2c(=O)[nH]c(-c3cc(S(=O)(=O)N(CC)CCOC)ccc3OCC)nn12 [Compound 9]
7.89

Now the same for CCCc1nc(C)c2c(=O)[nH]c(-c3cc(S(=O)(=O)N(C)CCN4CCCC4=O)ccc3OCC)nn12 [Compound 20]
7.94

Now the same for CCCc1nc(C)c2c(=O)[nH]c(-c3cc(S(=O)(=O)N4CCC[C@H]4CN4CCCC4)ccc3OCC)nn12.Cl [Compound 11]
7.32

---

# Assay Procedure: Caco-2 permeability
# Assay type: in vitro ADME
# Assay Context: human, AtoB
List of Papp A→B values.
Response body: numeric value in ×10⁻⁶ cm/s, unit text excluded.

Some solved cases for reference:
CCCc1nc(C)c2c(=O)[nH]c(-c3cc(S(=O)(=O)N(C)C(C)(C)C)ccc3OCC)nn12 50.8
CCCc1nc(C)c2c(=O)[nH]c(-c3cc(S(=O)(=O)NCCCN4CCCC4=O)ccc3OCC)nn12 10.6
CCCc1nc(C)c2c(=O)[nH]c(-c3cc(S(=O)(=O)N(CCO)CCO)ccc3OCC)nn12 4.3

# Papp A→B lookup, item "CCCc1nc(C)c2c(=O)[nH]c(-c3cc(S(=O)(=O)N(C)CC(=O)O)ccc3OCC)nn12"
2.2

Now the same for "CCCc1nc(C)c2c(=O)[nH]c(-c3cc(S(=O)(=O)N(C)C)ccc3OCC)nn12"
45.4

Now the same for "CCCc1nc(C)c2c(=O)[nH]c(-c3cc(S(=O)(=O)N4CCN(CC(=O)N(C)C)CC4)ccc3OCC)nn12"
2.65

Now the same for "CCCc1nc(C)c2c(=O)[nH]c(-c3cc(S(=O)(=O)N4CCN(CC(=O)NC(C)C)CC4)ccc3OCC)nn12"
4.11

Now the same for "CCCc1nc(C)c2c(=O)[nH]c(-c3cc(S(=O)(=O)N(C)C[C@H](COC)OC)ccc3OCC)nn12"
48.6
